# Tested on: DU-145
# ASSAY OVERVIEW: Cytotoxicity against human DU145 cells after 48 hrs by SRB assay
# Format: functional, cell-based
# CONDITIONS: Homo sapiens, DU-145, 48 h; read-out: LC50 (the source's name)
Property: CC50; scope: individual compounds
# output: bare number, implied unit nM

Here are 2 compounds together with their reported answers.
# COMPOUND STRUCTURE, CC50, nM
rows = [
    ("C/C=C1\\NC(=O)[C@H](Cc2ccccc2)NC(=O)[C@@H](C(C)C)NC(=O)[C@@H]([C@H](C)CC)NC(=O)[C@H](NC(=O)[C@H](NC(=O)[C@H](CCCN)NC(=O)[C@H]2CCCN2C(=O)[C@H](NC(=O)[C@H](CCC(N)=O)NC(=O)[C@@H](NC(=O)[C@H](NC(=O)CCCC(C)C)C(C)C)[C@@H](C)O)C(C)C)[C@H](C)CC)[C@H](C)OC(=O)[C@H](C(C)C)NC1=O", 1620),
    ("C/C=C1\\NC(=O)[C@H](Cc2ccc(F)c(F)c2)NC(=O)[C@@H](C(C)C)NC(=O)[C@@H]([C@H](C)CC)NC(=O)[C@H](NC(=O)[C@H](NC(=O)[C@H](CCCN)NC(=O)[C@H]2CCCN2C(=O)[C@H](NC(=O)[C@@H](NC(=O)[C@@H](NC(=O)[C@H](NC(=O)CCCC(C)C)C(C)C)[C@@H](C)O)C(C)C)C(C)C)[C@H](C)CC)[C@H](C)OC(=O)[C@H](C(C)C)NC1=O", 243),
]

Give its CC50 value. Item: `C/C=C1\NC(=O)[C@H](Cc2ccccc2)NC(=O)[C@@H](C(C)C)NC(=O)[C@@H]([C@H](C)CC)NC(=O)[C@H](NC(=O)[C@H](NC(=O)[C@H](CCCN)NC(=O)[C@H]2CCCN2C(=O)[C@H](NC(=O)[C@@H](NC(=O)[C@@H](NC(=O)[C@H](NC(=O)Cc2cc(F)cc(F)c2)C(C)C)[C@@H](C)O)C(C)C)C(C)C)[C@H](C)CC)[C@H](C)OC(=O)[C@H](C(C)C)NC1=O`
1600

---

# System: PANC-1
# ASSAY OVERVIEW: Cytotoxicity against human PANC1 cells after 48 hrs by SRB assay
# Type: functional
# CONDITIONS: PANC-1, 48 h
Please note: true applies when TGI is 2 µM or greater, and false applies otherwise.

Take a look at these entries with their results.
# COMPOUND, CLASS
records = [
    ("C/C=C1\\NC(=O)[C@H](Cc2ccccc2)NC(=O)[C@@H](C(C)C)NC(=O)[C@@H]([C@H](C)CC)NC(=O)[C@H](NC(=O)[C@H](NC(=O)[C@H](CCCN)NC(=O)[C@H]2CCCN2C(=O)[C@H](NC(=O)[C@H](Cc2ccccc2)NC(=O)[C@@H](NC(=O)[C@H](NC(=O)CCCC(C)C)C(C)C)[C@@H](C)O)C(C)C)[C@H](C)CC)[C@H](C)OC(=O)[C@H](C(C)C)NC1=O", "true"),
    ("C/C=C1\\NC(=O)[C@H](Cc2ccccc2)NC(=O)[C@@H](C(C)C)NC(=O)[C@@H]([C@H](C)CC)NC(=O)[C@H](NC(=O)[C@H](NC(=O)[C@H](CCCN)NC(=O)[C@H]2CCCN2C(=O)[C@H](NC(=O)[C@@H](NC(=O)[C@H](CCC(N)=O)NC(=O)[C@H](NC(=O)CCCC(C)C)C(C)C)C(C)C)C(C)C)[C@H](C)CC)[C@H](C)OC(=O)[C@H](C(C)C)NC1=O", "false"),
    ("C/C=C1\\NC(=O)[C@H](Cc2ccccc2)NC(=O)[C@@H](C(C)C)NC(=O)[C@@H]([C@H](C)CC)NC(=O)[C@H](NC(=O)[C@H](NC(=O)[C@H](CCCN)NC(=O)[C@H]2CCCN2C(=O)[C@H](NC(=O)[C@@H](NC(=O)[C@@H](NC(=O)[C@@H](CC(C)C)NC(=O)CCCC(C)C)[C@@H](C)O)C(C)C)C(C)C)[C@H](C)CC)[C@H](C)OC(=O)[C@H](C(C)C)NC1=O", "true"),
    ("C/C=C1\\NC(=O)[C@@H]2C[C@@H]3CCCC[C@@H]3N2C(=O)[C@@H](C(C)C)NC(=O)[C@@H]([C@H](C)CC)NC(=O)[C@H](NC(=O)[C@H](NC(=O)[C@H](CCCN)NC(=O)[C@H]2CCCN2C(=O)[C@H](NC(=O)[C@@H](NC(=O)[C@@H](NC(=O)[C@H](NC(=O)CC[C@@H](C)CC)C(C)C)[C@@H](C)O)C(C)C)C(C)C)[C@H](C)CC)[C@H](C)OC(=O)[C@H](C(C)C)NC1=O", "true"),
    ("C/C=C1\\NC(=O)[C@H](Cc2ccc3ccccc3c2)NC(=O)[C@@H](C(C)C)NC(=O)[C@@H]([C@H](C)CC)NC(=O)[C@H](NC(=O)[C@H](NC(=O)[C@H](CCCN)NC(=O)[C@H]2CCCN2C(=O)[C@H](NC(=O)[C@@H](NC(=O)[C@@H](NC(=O)[C@H](NC(=O)CCCC(C)C)C(C)C)[C@@H](C)O)C(C)C)C(C)C)[C@H](C)CC)[C@H](C)OC(=O)[C@H](C(C)C)NC1=O", "false"),
    ("CC[C@@H](C)[C@@H](NC(=O)[C@H](CCCN)NC(=O)[C@H]1CCCN1C(=O)[C@H](NC(=O)[C@@H](NC(=O)[C@@H](NC(=O)[C@H](NC(=O)CCCC(C)C)C(C)C)[C@@H](C)O)C(C)C)C(C)C)C(=O)N[C@H]1C(=O)N[C@H]([C@H](C)CC)C(=O)N[C@H](C(C)C)C(=O)N[C@@H](Cc2ccccc2)C(=O)N[C@H]([C@H](C)O)C(=O)N[C@@H](C(C)C)C(=O)O[C@H]1C", "true"),
    ("C/C=C1\\NC(=O)[C@H](Cc2ccccc2)NC(=O)[C@@H](C(C)C)NC(=O)[C@@H]([C@H](C)CC)NC(=O)[C@H](NC(=O)[C@H](NC(=O)[C@H](CCCN)NC(=O)[C@H]2CCCN2C(=O)[C@H](NC(=O)[C@@H](NC(=O)[C@@H](NC(=O)[C@H](NC(=O)CCCCCCCCCC)C(C)C)[C@@H](C)O)C(C)C)C(C)C)[C@H](C)CC)[C@H](C)OC(=O)[C@H](C(C)C)NC1=O", "false"),
    ("C/C=C1\\NC(=O)[C@H](Cc2ccccc2)NC(=O)[C@@H](C(C)C)NC(=O)[C@@H]([C@H](C)CC)NC(=O)[C@H](NC(=O)[C@H](NC(=O)[C@H](CCCN)NC(=O)[C@H]2CCCN2C(=O)[C@H](NC(=O)[C@@H](NC(=O)[C@@H](NC(=O)[C@H](NC(=O)CCCCCCCCCCCCCCC)C(C)C)[C@@H](C)O)C(C)C)C(C)C)[C@H](C)CC)[C@H](C)OC(=O)[C@H](C(C)C)NC1=O", "false"),
]

Quick check: does C/C=C1\NC(=O)[C@H](Cc2ccccc2)NC(=O)[C@@H](C(C)C)NC(=O)[C@@H]([C@H](C)CC)NC(=O)[C@H](NC(=O)[C@H](NC(=O)[C@H](CCCN)NC(=O)[C@H]2CCCN2C(=O)[C@H](NC(=O)[C@@H](NC(=O)[C@@H](NC(=O)[C@H](NC(=O)CCCC(C)C)C(C)C)[C@@H](C)O)C(C)C)C(C)C)[C@H](C)CC)[C@H](C)OC(=O)[C@H](C(C)C)NC1=O [KAHALALIDE F] have TGI greater than or equal to 2 µM?
true
